SYSTEM_NAME: T1, recombinant soluble human TREM2 protein (human TREM2 ECD-FlagHis) (human, UniProt Q9NZC2 19-174)
T1 sequence: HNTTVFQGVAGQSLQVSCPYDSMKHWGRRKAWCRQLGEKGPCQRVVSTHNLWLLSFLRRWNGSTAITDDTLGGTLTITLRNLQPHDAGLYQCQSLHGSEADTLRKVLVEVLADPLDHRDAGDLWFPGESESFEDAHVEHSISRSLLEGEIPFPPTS
MEASUREMENT_PROTOCOL: Octet BLI binning; competitor: load Ab 26F2
EXPERIMENTAL_ENDPOINT: sandwich binding signal
Keep the answer to the number alone.

Need sandwich binding signal of 26C10 (antibody, human IgG2, V domains shown, human IgG2 from hybridoma) VH: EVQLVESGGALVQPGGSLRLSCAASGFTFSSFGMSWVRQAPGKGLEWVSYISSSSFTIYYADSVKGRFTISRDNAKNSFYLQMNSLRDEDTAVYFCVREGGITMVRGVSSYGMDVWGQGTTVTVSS VL: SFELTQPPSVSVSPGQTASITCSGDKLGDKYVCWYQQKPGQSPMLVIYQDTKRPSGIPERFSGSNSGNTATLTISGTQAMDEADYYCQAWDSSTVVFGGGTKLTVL , thanks.
-0.015
